- System: spontaneously hypertensive rats (SHR)
- Assay Name: Diuretic activity in spontaneously hypertensive rats
- Type: in vivo, male spontaneously hypertensive rats (Okamoto strain)
- Details: 100 mg/kg by gavage with 0.9% sodium chloride loading 25 ml/kg; 0-5 hour urine
Field: Sodium (urinary excretion). Provide a value for each of the compounds that follow.
I only need the number, in mEQ/5 Hours, no unit after it.

Form: compound = `CC#CCOC(=O)N=P(c1ccccc1)(c1ccccc1)c1ccccc1` ; Sodium (urinary excretion) = 1.15

Entry C[C@@H]1CCC[C@H]1OC(=O)N=P(c1ccccc1)(c1ccccc1)c1ccccc1 (relative stereo) , Sodium (urinary excretion) reported as 1.55

`CCOC(=O)N=P(c1ccccc1)(c1ccccc1)c1ccccc1` yielded Sodium (urinary excretion) of 1.86

Entry `CCOC(=O)N=P(c1ccccc1)(c1ccccc1)c1c(C)cccc1C` ; Sodium (urinary excretion) = 1.48

For record CCO[C@@H]1CCC[C@H]1OC(=O)N=P(c1ccccc1)(c1ccccc1)c1ccccc1 (relative stereo) the listed Sodium (urinary excretion) is 1.38

In plain terms, O=C(N=P(c1ccccc1)(c1ccccc1)c1ccccc1Cl)OC1CCOC1 (stereo not drawn) has a documented Sodium (urinary excretion) of 1.90

The compound identified as CO[C@@H]1CCC[C@H]1OC(=O)N=P(c1ccccc1)(c1ccccc1)c1ccccc1 (relative stereo) registered its Sodium (urinary excretion) at 1.83

Note to self: Sodium (urinary excretion) recorded for `O=C(N=P(c1ccccc1)(c1ccccc1)c1ccccc1)OCc1ccncc1` was 1.50

Entry `CCOC(=O)N=P(c1ccccc1)(c1ccccc1)c1ccccc1Br` , Sodium (urinary excretion) reported as 2.51
